target: human native muscle-type nicotinic receptors (likely α1β1γδ) (Homo sapiens, UniProt P02708+P07510+Q07001); construct: human native muscle-type nicotinic receptors (likely α1β1γδ); endogenous in cells; assay: [3H]epibatidine binding, TE-671 membranes
Sequence (P07510 23-517): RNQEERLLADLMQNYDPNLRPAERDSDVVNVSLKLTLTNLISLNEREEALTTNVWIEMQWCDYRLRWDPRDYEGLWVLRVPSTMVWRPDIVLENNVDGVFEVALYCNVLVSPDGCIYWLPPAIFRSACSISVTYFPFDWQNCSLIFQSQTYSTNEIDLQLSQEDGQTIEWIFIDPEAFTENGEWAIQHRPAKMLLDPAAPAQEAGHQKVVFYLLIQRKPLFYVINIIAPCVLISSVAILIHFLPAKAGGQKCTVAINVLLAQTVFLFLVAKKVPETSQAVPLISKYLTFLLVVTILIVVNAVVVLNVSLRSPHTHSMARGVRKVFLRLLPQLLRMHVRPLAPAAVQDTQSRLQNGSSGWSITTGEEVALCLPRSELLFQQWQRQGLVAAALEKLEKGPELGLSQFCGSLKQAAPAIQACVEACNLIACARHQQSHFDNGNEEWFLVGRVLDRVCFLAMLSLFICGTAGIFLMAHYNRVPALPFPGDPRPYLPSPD
Sequence (P11230 24-501, further chain): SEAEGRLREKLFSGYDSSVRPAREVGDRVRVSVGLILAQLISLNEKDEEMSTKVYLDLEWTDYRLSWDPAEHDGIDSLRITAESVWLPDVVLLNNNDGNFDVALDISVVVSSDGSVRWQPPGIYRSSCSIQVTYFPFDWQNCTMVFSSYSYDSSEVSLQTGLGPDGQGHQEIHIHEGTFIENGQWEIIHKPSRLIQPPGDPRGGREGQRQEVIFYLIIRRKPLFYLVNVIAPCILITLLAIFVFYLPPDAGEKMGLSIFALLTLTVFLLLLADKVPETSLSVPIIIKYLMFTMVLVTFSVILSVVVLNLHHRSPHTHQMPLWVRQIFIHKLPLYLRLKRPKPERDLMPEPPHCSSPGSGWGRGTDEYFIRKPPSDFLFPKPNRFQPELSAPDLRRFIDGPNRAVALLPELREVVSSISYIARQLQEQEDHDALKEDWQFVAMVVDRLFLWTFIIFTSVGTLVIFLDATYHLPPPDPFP
Sequence (P02708 21-457): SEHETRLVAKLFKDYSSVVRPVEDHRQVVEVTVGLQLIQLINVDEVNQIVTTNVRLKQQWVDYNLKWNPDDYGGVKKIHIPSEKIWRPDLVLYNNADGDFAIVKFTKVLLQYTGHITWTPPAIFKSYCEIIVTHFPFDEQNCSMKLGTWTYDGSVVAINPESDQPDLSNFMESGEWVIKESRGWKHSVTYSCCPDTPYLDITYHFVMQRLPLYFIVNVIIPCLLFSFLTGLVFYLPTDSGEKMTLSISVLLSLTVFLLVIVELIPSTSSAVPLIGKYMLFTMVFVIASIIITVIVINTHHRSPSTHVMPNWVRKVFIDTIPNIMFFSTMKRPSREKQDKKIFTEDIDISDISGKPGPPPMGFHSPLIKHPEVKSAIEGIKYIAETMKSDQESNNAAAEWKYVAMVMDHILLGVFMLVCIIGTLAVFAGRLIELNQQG
Sequence (Q07001 22-517): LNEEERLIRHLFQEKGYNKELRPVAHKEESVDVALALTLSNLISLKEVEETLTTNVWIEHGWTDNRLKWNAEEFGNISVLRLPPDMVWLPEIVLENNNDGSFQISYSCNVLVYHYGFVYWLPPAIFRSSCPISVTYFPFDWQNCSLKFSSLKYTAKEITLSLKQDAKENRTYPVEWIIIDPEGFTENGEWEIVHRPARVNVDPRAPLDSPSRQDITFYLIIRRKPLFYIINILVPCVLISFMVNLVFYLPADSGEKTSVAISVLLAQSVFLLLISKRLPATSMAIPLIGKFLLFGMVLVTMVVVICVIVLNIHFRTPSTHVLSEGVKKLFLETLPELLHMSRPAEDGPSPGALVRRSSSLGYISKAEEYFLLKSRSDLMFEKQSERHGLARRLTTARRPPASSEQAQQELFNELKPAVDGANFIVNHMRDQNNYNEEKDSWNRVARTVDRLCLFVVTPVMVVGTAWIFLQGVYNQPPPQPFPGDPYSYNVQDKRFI

SMILES_CODE	Ki (µM)
O=C(N[C@@H]1C2CCN(CC2)[C@H]1Cc1cccnc1)c1cc(F)cc(F)c1	136

###

target: human native ganglion-type nicotinic receptors (likely α3β4) (Homo sapiens, UniProt P30926+P32297); construct: human native ganglion-type nicotinic receptors (likely α3β4); endogenous in cells; assay: [3H]epibatidine binding, SH-SY5Y membranes; settings: read-out: Human ganglionic (SH-SY5Y), Ki
Sequence (P32297 32-505): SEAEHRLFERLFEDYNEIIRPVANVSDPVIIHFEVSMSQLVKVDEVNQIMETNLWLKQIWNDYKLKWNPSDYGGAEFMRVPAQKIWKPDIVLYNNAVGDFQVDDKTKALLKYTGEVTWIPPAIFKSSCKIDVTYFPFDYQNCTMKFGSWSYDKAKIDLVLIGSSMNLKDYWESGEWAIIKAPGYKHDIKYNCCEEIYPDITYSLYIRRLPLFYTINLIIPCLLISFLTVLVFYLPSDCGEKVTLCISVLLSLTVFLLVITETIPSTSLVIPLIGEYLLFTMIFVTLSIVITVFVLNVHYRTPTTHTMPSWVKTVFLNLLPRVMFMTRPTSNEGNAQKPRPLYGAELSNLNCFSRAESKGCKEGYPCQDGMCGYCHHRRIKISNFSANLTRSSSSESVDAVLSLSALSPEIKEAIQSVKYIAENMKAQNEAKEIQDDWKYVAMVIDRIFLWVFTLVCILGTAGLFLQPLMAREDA
Sequence (P30926 22-498): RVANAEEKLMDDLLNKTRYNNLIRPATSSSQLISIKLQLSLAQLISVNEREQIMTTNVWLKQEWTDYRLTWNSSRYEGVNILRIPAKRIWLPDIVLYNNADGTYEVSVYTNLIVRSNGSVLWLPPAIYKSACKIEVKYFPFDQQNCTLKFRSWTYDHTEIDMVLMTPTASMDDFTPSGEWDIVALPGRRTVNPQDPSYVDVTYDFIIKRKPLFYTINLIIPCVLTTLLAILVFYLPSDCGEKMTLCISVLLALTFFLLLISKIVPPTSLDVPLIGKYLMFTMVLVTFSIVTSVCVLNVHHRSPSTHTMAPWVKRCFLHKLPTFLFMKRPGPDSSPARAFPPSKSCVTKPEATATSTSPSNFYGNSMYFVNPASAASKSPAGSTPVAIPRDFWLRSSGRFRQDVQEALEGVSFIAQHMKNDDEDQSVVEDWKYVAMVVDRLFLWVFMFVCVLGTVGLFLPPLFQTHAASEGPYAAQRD
pKi: −log10 of the molar value.
MEASUREMENT_LABEL: pKi

SMILES_CODE	MEASUREMENT_LABEL	RESULT_VALUE
O=C(N[C@@H]1C2CCN(CC2)[C@H]1Cc1cccnc1)c1cc(F)cc(F)c1	pKi	4.32
